Every entry's value here was drawn from ChEMBL document CHEMBL5724806.

assay: The drug is tested on Bacteroides uniformis strain: DSM6597 for biotransformation under anaerobic condition. The drug concentrations were measured over 6 timepoints collected between 0 and 12 hours of incubation by liquid-chromatography-coupled mass spectrometry (LC–MS); assay type: ADME; set-up: dose 5 uM, timepoint 0, 1.5, 3, 6, 9, 12 hours; conditions: 5 µM
ENDPOINT LABEL: Bacterial Biotransformation

SUBSTANCE SMILES	MEASUREMENT
CO[C@H]1C[C@@H]2CC[C@@H](C)[C@@](O)(O2)C(=O)C(=O)N2CCCC[C@H]2C(=O)O[C@H]([C@H](C)C[C@@H]2CC[C@@H](OCCO)[C@H](OC)C2)CC(=O)[C@H](C)/C=C(\C)[C@@H](O)[C@@H](OC)C(=O)[C@H](C)C[C@H](C)/C=C/C=C/C=C/1C	Compound NOT metabolized
COc1c(C)c2c(c(O)c1C/C=C(\C)CCC(=O)O)C(=O)OC2	Compound NOT metabolized
